# assay: Peptide stability in human plasma (in vitro)
# Assay type: in vitro ADME
# details: human blood plasma, 200 μM peptide, 37° C., read-out: t1/2 in human plasma
Where a SMILES comes first, the peptide text is derived from it. Bridges are numbered along the chain shown (N, C = ends). [ ]: non-standard residue; d: D form. NMeI = CC[C@H](C)[C@H](NC)C(=O)O; Sar = CNCC(=O)O
readout: half-life at 200 μM

Prompt: Param item = CC[C@H](C)[C@H]1C(=O)NCC(=O)NCC(=O)N[C@H](C(N)=O)CSSC[C@H](N)C(=O)NCC(=O)N[C@@H](Cc2ccccc2)C(=O)N[C@@H](CC(C)C)C(=O)NCC(=O)NCC(=O)N[C@@H](CCCNC(=N)N)C(=O)N[C@@H](CCCNC(=N)N)C(=O)N[C@@H](CCCNC(=N)N)C(=O)NCC(=O)N[C@@H](Cc2ccccc2)C(=O)N(C)CC(=O)NCC(=O)N1C [Peptide 2b] (H-CGFLGGRRRGF[Sar]G[NMeI]GGC-NH2; disulfide 1-17) ; retrieve measured half-life at 200 μM.
Completion: ~45 min
